Test: amyloid nucleation score (Sup35N fusion, yeast selection) (log enrichment); library NNK1; higher = more nucleation; inactive = no reads after selection;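 further: zero at mode of non-aggregating sequences after 7 days selection at 30°C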
Kind request: treat 0.2 as inclusive, so amyloid nucleation score at 0.2 or higher is label 1, anything lower is label 0.

[
  {
    "Substance": "TVAGLT",
    "Assigned Label": "label 0"
  },
  {
    "Substance": "IRMGCNVHREEVSFTVLAVH",
    "Assigned Label": "label 1"
  },
  {
    "Substance": "YFSVHF",
    "Assigned Label": "label 1"
  },
  {
    "Substance": "SKEESPMTFVWILGGHSELS",
    "Assigned Label": "label 0"
  },
  {
    "Substance": "CCDVHGCVGNMLSFTGILLF",
    "Assigned Label": "label 1"
  },
  {
    "Substance": "RPKSEISSNFLVDMGFYREM",
    "Assigned Label": "label 1"
  },
  {
    "Substance": "TEAMTGYVLNNNWYSQLYVF",
    "Assigned Label": "label 0"
  },
  {
    "Substance": "SNMLHWSVRMGHGWW",
    "Assigned Label": "label 0"
  },
  {
    "Substance": "GKFDSGYVKGTVHNEAEFQP",
    "Assigned Label": "label 0"
  },
  {
    "Substance": "VVIGILSEYATKTNWFCSIY",
    "Assigned Label": "label 1"
  },
  {
    "Substance": "KRNRVAIILWICNNYYEWNN",
    "Assigned Label": "label 0"
  },
  {
    "Substance": "GFMIICN",
    "Assigned Label": "label 0"
  },
  {
    "Substance": "FLTSECSTSSLHS",
    "Assigned Label": "label 1"
  },
  {
    "Substance": "RDFYCFWLG",
    "Assigned Label": "label 1"
  },
  {
    "Substance": "NLSSSRSVVKNLTFQMWNTS",
    "Assigned Label": "label 1"
  },
  {
    "Substance": "VKSGALKYRKIGAYGTGSRL",
    "Assigned Label": "label 1"
  },
  {
    "Substance": "RSMGKIMIRENQRSLVMLSH",
    "Assigned Label": "label 1"
  },
  {
    "Substance": "SGTTRWCRGGV",
    "Assigned Label": "label 0"
  },
  {
    "Substance": "GLVIELNPFKSLLSSPWVFF",
    "Assigned Label": "label 1"
  },
  {
    "Substance": "MRIRAKSALSVSLECDLQFL",
    "Assigned Label": "label 1"
  },
  {
    "Substance": "MLEGMRRWNNIALVVIRGVG",
    "Assigned Label": "label 0"
  },
  {
    "Substance": "IFLIMKNRTSILRPTGFLVS",
    "Assigned Label": "label 0"
  },
  {
    "Substance": "VFGVKVRDCASANGVFGWSS",
    "Assigned Label": "label 0"
  },
  {
    "Substance": "YFDWLGCLLTWQRKYVQT",
    "Assigned Label": "label 0"
  },
  {
    "Substance": "AELSITASTNMESNLVNSIR",
    "Assigned Label": "label 0"
  },
  {
    "Substance": "RLVIRSGTNAGMVGRSWGGC",
    "Assigned Label": "label 0"
  },
  {
    "Substance": "VMYLSGCHLRLKCYLGSFNR",
    "Assigned Label": "label 1"
  },
  {
    "Substance": "LSFNSTSPEIIRTVVMAWC",
    "Assigned Label": "label 0"
  },
  {
    "Substance": "NICMQTRVIRAS",
    "Assigned Label": "label 1"
  },
  {
    "Substance": "MVQAPLTSQPYNNGMVRQK",
    "Assigned Label": "label 0"
  },
  {
    "Substance": "LQSTFFFYGGCKRVWSMMYH",
    "Assigned Label": "label 1"
  },
  {
    "Substance": "HLTKRGLSQTKRSAALQRVG",
    "Assigned Label": "label 1"
  },
  {
    "Substance": "LSKGRATVYF",
    "Assigned Label": "label 1"
  },
  {
    "Substance": "GFAWYDYMLQYIVVLVGLYN",
    "Assigned Label": "label 0"
  },
  {
    "Substance": "ECDYDYGTSWSQVSYVRGV",
    "Assigned Label": "label 0"
  },
  {
    "Substance": "LNFFVPA",
    "Assigned Label": "label 0"
  },
  {
    "Substance": "YLASFMNLAISVGLVDGLCG",
    "Assigned Label": "label 0"
  },
  {
    "Substance": "NRLRNGPNDRVVRATAPKGF",
    "Assigned Label": "label 1"
  },
  {
    "Substance": "RYTLFCLSVNYWWTFWLDSV",
    "Assigned Label": "label 1"
  },
  {
    "Substance": "SSQRGGNPGIMFNWEIVLRG",
    "Assigned Label": "label 1"
  },
  {
    "Substance": "CFRISARFFRVQFHGVVCIW",
    "Assigned Label": "label 1"
  },
  {
    "Substance": "RMFNQAI",
    "Assigned Label": "label 0"
  },
  {
    "Substance": "PEGWYLTNCRAGRFSSR",
    "Assigned Label": "label 0"
  },
  {
    "Substance": "GRMAGMFWNCGGCMEMDSVC",
    "Assigned Label": "label 1"
  },
  {
    "Substance": "QLRGWQYSKATREVDSREDR",
    "Assigned Label": "label 1"
  },
  {
    "Substance": "EMTRLLNSCIKYQYSRQRYA",
    "Assigned Label": "label 0"
  },
  {
    "Substance": "SHVGSYSWVCSRLARIGCER",
    "Assigned Label": "label 0"
  },
  {
    "Substance": "CMHEKIYIITCRSCGLREIR",
    "Assigned Label": "label 0"
  },
  {
    "Substance": "DFGRFTGSG",
    "Assigned Label": "label 0"
  },
  {
    "Substance": "FASDRLYWTWK",
    "Assigned Label": "label 1"
  },
  {
    "Substance": "NFVSYTFLCCGCVVLILVTS",
    "Assigned Label": "label 0"
  },
  {
    "Substance": "LWWFEYRL",
    "Assigned Label": "label 0"
  },
  {
    "Substance": "ACPVGTRFTVATTFRRMLCE",
    "Assigned Label": "label 1"
  },
  {
    "Substance": "ILSWSNSGRMNHRPLVYERS",
    "Assigned Label": "label 1"
  },
  {
    "Substance": "VPYRFPRMVKYGSMDFTSLE",
    "Assigned Label": "label 1"
  },
  {
    "Substance": "DYESSVGRSQDLAY",
    "Assigned Label": "label 0"
  },
  {
    "Substance": "IGENCRWRMSSRCGFNGNDT",
    "Assigned Label": "label 0"
  },
  {
    "Substance": "SFNVKVAHGLIRFSPDICYQ",
    "Assigned Label": "label 1"
  },
  {
    "Substance": "MCVILVELYQRGSWYTRKVM",
    "Assigned Label": "label 0"
  },
  {
    "Substance": "PDWCLMVLLCGLVCIYVDLN",
    "Assigned Label": "label 1"
  },
  {
    "Substance": "LKVRLNESIICYAMRVKHIC",
    "Assigned Label": "label 1"
  },
  {
    "Substance": "RYMLHDLIFPVSVVMRVSYE",
    "Assigned Label": "label 1"
  },
  {
    "Substance": "YEFTYLWNNKVLLGLCCYGG",
    "Assigned Label": "label 1"
  },
  {
    "Substance": "WFHSQVTQNYSVWLLSTNYS",
    "Assigned Label": "label 0"
  },
  {
    "Substance": "TLTDSN",
    "Assigned Label": "label 0"
  },
  {
    "Substance": "TRHFVTVFGCVDNRVEYLNG",
    "Assigned Label": "label 1"
  },
  {
    "Substance": "LPGFWPFMSDTPLGHQIVA",
    "Assigned Label": "label 0"
  }
]
